Values compiled from a melting point compilation (Tetko et al.; mined from patent text by program, amines drawn as free bases though some values may be those of a salt).

Property: melting point; scope: individual compounds

Solved entries:
>  <compound>
Cc1oc(-c2ccccc2)nc1CCOc1ccc([N+](=O)[O-])cn1

>  <measurement>
110 to 112 °C

$$$$
>  <compound>
COc1cccc2c(Cc3nc(CCc4ccccc4)co3)coc12

>  <measurement>
69 to 70 °C

$$$$
>  <compound>
CCOC(=O)c1c(C)nc2c(c1N)c1c(n2Cc2ccc(OC)cc2)CCCC1

>  <measurement>
108 to 110 °C

$$$$
>  <compound>
CCn1ncnc1COc1nc2c(cc1C(C)(C)C)nnn2-c1cc(F)ccc1F

>  <measurement>
148 to 150 °C

$$$$
>  <compound>
COc1cc(OP(=O)(OC)OC)c(C(=O)c2ccccc2)s1

>  <measurement>
76 °C

$$$$

IN: Param item = Cc1ccc(NC(=O)NCc2ccc3c(c2)CN(C2CCC(=O)NC2=O)C3=O)cc1C(F)(F)F (centres undefined) ; retrieve measured melting point.
OUT: 273 to 275 °C

IN: Next up: `CN1C(=O)C(C(=O)c2ccc(Cl)cc2Cl)C(=O)N(C)C1=O`
OUT: 123 to 127 °C

IN: Next up: CCOCCC(=O)OC1(C(=O)CO)CCC2C3CC(C)C4=CC(=O)C=CC4(C)C3C(O)CC21C (centres undefined)
OUT: 167 °C

IN: Next up: `O=CNC1(c2ccccc2)CCN(Cc2ccccc2)CC1`
OUT: 140 °C

---

endpoint.name: melting point

>  <molecule>
O=C(c1ccc(O)cc1)c1ccc(OCCO)cc1

>  <endpoint.name>
melting point

>  <measurement>
146 to 147 °C

$$$$
>  <molecule>
CCCCc1c(C(=O)O)ccc2c(OC)cccc12

>  <endpoint.name>
melting point

>  <measurement>
154 to 155 °C

$$$$
>  <molecule>
CC(C)(C)OC(=O)NC(O)CCO (stereo not given)

>  <endpoint.name>
melting point

>  <measurement>
83 to 85 °C

$$$$
>  <molecule>
CCc1nc2ncnn2c(N[C@H]2CC[C@@H](C(C)(C)C)CC2)c1Cl

>  <endpoint.name>
melting point

>  <measurement>
120 to 122 °C

$$$$
>  <molecule>
COCC1CN(c2ccc(C3CCC(OC(c4ccccc4)c4ccccc4)CC3)cc2)C(=O)O1 (racemic)

>  <endpoint.name>
melting point

>  <measurement>
146 to 148 °C

$$$$
>  <molecule>
c1ccc(N2CCN(Cc3coc4ccccc34)CC2)cc1

>  <endpoint.name>
melting point

>  <measurement>
103 to 105 °C

$$$$
>  <molecule>
COc1ccc(S(=O)(=O)N(CCC(N)=O)c2ccc(Cl)cc2Cc2c(F)cccc2F)cc1OC

>  <endpoint.name>
melting point

>  <measurement>
189 °C

$$$$
>  <molecule>
CN(C)C=Cc1ccc([N+](=O)[O-])c(OCc2ccccc2)c1

>  <endpoint.name>
melting point

>  <measurement>
111 to 114 °C

$$$$

IN: Param item = `O=C1CSc2ccc(CO)nc2N1` ; retrieve measured melting point.
OUT: 120 to 135 °C

IN: Next up: `Cc1cc(-c2c(-c3ccc(S(N)(=O)=O)cc3)cnn(-c3ccc(F)c(F)c3)c2=O)ccc1F`
OUT: 243 to 245 °C

---

endpoint.name: melting point

>  <compound>
Oc1cccc(CCCn2ccnn2)c1

>  <melting point>
74 to 75 °C

$$$$

IN: Param item = `CCOC(=O)c1cnc(OC)nc1Cl` ; retrieve measured melting point.
OUT: 26 to 28 °C
